# experimental.target: UPF2S (Homo sapiens, UniProt Q9HAU5 761-1227)
# Sequence (Q9HAU5 761-1227): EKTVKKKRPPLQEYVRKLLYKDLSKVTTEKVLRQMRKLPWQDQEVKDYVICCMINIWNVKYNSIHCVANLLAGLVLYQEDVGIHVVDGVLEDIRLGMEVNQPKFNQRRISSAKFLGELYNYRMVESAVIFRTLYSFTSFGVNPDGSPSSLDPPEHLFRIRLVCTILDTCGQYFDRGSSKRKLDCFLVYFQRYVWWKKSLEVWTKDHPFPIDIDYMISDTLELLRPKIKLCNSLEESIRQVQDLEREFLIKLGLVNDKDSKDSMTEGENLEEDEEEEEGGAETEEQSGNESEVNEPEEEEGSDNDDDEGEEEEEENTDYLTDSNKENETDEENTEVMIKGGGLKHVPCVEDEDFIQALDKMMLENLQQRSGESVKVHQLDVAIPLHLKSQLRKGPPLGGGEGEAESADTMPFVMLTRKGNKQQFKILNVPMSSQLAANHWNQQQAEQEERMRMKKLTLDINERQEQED
# assay: fluorescence anisotropy
pKd: −log10 of the molar value.
reported.property: pKd

INPUT: Complete the entry with pKd for UUUUUUUUUUUU (ssRNA) [U12 RNA]
OUTPUT: ~6.22
